Experiment: AUCinfinity in Beagle dog at 1 mg/kg, iv measured upto 24 hrs by LC/MS-MS analysis
Format: ADME, organism-based, Canis lupus familiaris
Conditions: in vivo
Reported Metric: AUC (ng·h/mL)
Please state the figure in ng·h/mL; there is no need to write the unit.

stdin: Request the reported AUC associated with `O=C(O)[C@H](c1cc(F)ccc1[C@@H]1CCC2(CC2)CO1)N1CC[C@@H](OCCCCc2ccc3c(n2)NCCC3)C1`
stdout: 2970

====

Experiment: Oral bioavailability in cynomolgus […] at 5 mg/kg measured upto 24 hrs by LC/MS-MS analysis
Assay type: ADME, organism-based, Macaca fascicularis
Conditions: in vivo
Reported Metric: bioavailability

stdin: So what's the measured bioavailability for this one? `O=C(O)[C@H](c1cc(F)ccc1[C@@H]1CCC2(CC2)CO1)N1CC[C@@H](OCCCCc2ccc3c(n2)NCCC3)C1`
stdout: 16%

Values compiled from ChEMBL document CHEMBL6083263.
